All figures here come from patent US7109186B2.

target: HIV-integrase (Human immunodeficiency virus type 1 group M subtype B, UniProt P04585); construct: 0.26 ng of recombinant integrase was incubated with the beads for 90 min at 37 C; assay: HIV integrase SPA integration assay (biotin-labeled substrate DNA on streptavidin SPA beads, P33-labeled target DNA); format: biochemical; conditions: percent inhibition of HIV-integrase in the presence of 20 μM of compound
Measured inhibition at 20 µM, listed per entry.
# output: bare number, implied unit %

Challenge: Consider the compound shown here: CN(Cc1ccc(F)cc1)C(=O)C1=C(O)C(=O)N(CCc2ccccc2Cl)C1 [Compound 3] What is its recorded inhibition at 20 µM?
Response given: 99.9

Challenge: Then this compound: CN(Cc1ccc(Cl)c(Cl)c1)C(=O)C1=C(O)C(=O)N(CCC#N)C1 [Compound 42]
Response given: 99.9

Challenge: Then this compound: CON(Cc1ccc(F)cc1Cl)C(=O)C1=C(O)C(=O)N(C)C1 [Compound 74]
Response given: 97.8

Challenge: Then this compound: CN(Cc1ccc(Cl)c(Cl)c1)C(=O)C1=C(O)C(=O)N(C(CC(N)=O)C(=O)O)C1 (centres unmarked) [Compound 25]
Response given: 99.9

Challenge: Then this compound: CON(Cc1ccc(C(=O)OC(C)(C)C)cc1)C(=O)C1=C(O)C(=O)N(C)C1 [Compound 68-A]
Response given: 4.5

Challenge: Then this compound: CN(Cc1ccc(Cl)c(Cl)c1)C(=O)C1=C(O)C(=O)N(CCC(=O)NCCC(=O)O)C1 [Compound 37]
Response given: 99.9

Challenge: Then this compound: CN(Cc1ccc(Cl)c(Cl)c1)C(=O)C1=C(O)C(=O)N(CCC(=O)O)C1 [Compound 18]
Response given: 99.9

Challenge: Then this compound: CON(CCc1ccc(F)cc1)C(=O)C1=C(O)C(=O)N(C)C1 [Compound 52]
Response given: 86
